Target: IGF2 (Homo sapiens, UniProt P01344)
Sequence (P01344 25-91): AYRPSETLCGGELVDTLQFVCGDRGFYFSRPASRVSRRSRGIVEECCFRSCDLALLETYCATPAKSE
Test: SPR (Biacore T200) of recombinant IGF2R domain 11 mutants on immobilised biotinylated IGF2
Format: binding
Design: purchased GroPep
Settings: Table 3; 25° C., HBS-EP pH 7.4
Listing of recorded Kinetics koff by entry.
quantity: Kinetics koff (s⁻¹)

molecule="AB5: IGF2R domain 11 with five AB loop mutations S1543A, E1544K, K1545G, G1546W, L1547G (YAKGWG) (protein) MKSNEHDDCQVTNPSTGHLFDLSSLSGRAGFTAAYAKGWGVYMSICGENENCPPGVGACFGQTRISVGKANKRLRYVDQVLQLVYKDGSPCPSKSGLSYKSVISFVCRPEAGPTNRPMLISLDKQTCTLFFSWHTPLACEQATECSV" quantity="Kinetics koff" quantitativeresult=0.0208
molecule="AB3 Q1569R: domain 11 AB3 + CD loop Q1569R (protein) MKSNEHDDCQVTNPSTGHLFDLSSLSGRAGFTAAYSKSGVVYMSICGENENCPPGVGACFGRTRISVGKANKRLRYVDQVLQLVYKDGSPCPSKSGLSYKSVISFVCRPEAGPTNRPMLISLDKQTCTLFFSWHTPLACEQATECSV" quantity="Kinetics koff" quantitativeresult=0.031
molecule="AB3 P1597H: domain 11 AB3 + FG loop P1597H (protein) MKSNEHDDCQVTNPSTGHLFDLSSLSGRAGFTAAYSKSGVVYMSICGENENCPPGVGACFGQTRISVGKANKRLRYVDQVLQLVYKDGSHCPSKSGLSYKSVISFVCRPEAGPTNRPMLISLDKQTCTLFFSWHTPLACEQATECSV" quantity="Kinetics koff" quantitativeresult=0.013
molecule="AB5 Q1569R P1597H: domain 11 AB5 + Q1569R, P1597H (protein) MKSNEHDDCQVTNPSTGHLFDLSSLSGRAGFTAAYAKGWGVYMSICGENENCPPGVGACFGRTRISVGKANKRLRYVDQVLQLVYKDGSHCPSKSGLSYKSVISFVCRPEAGPTNRPMLISLDKQTCTLFFSWHTPLACEQATECSV" quantity="Kinetics koff" quantitativeresult=0.0058
molecule="AB3 Q1569R P1597K: domain 11 AB3 + Q1569R, P1597K (protein) MKSNEHDDCQVTNPSTGHLFDLSSLSGRAGFTAAYSKSGVVYMSICGENENCPPGVGACFGRTRISVGKANKRLRYVDQVLQLVYKDGSKCPSKSGLSYKSVISFVCRPEAGPTNRPMLISLDKQTCTLFFSWHTPLACEQATECSV" quantity="Kinetics koff" quantitativeresult=0.0241
molecule="AB5 P1597K S1602H: domain 11 AB5 + P1597K, S1602H (protein) MKSNEHDDCQVTNPSTGHLFDLSSLSGRAGFTAAYAKGWGVYMSICGENENCPPGVGACFGQTRISVGKANKRLRYVDQVLQLVYKDGSKCPSKHGLSYKSVISFVCRPEAGPTNRPMLISLDKQTCTLFFSWHTPLACEQATECSV" quantity="Kinetics koff" quantitativeresult=0.0096
molecule="AB3 Q1569R P1597K S1602H G1603K: domain 11 AB3 + Q1569R, P1597K, S1602H, G1603K (protein) MKSNEHDDCQVTNPSTGHLFDLSSLSGRAGFTAAYSKSGVVYMSICGENENCPPGVGACFGRTRISVGKANKRLRYVDQVLQLVYKDGSKCPSKHKLSYKSVISFVCRPEAGPTNRPMLISLDKQTCTLFFSWHTPLACEQATECSV" quantity="Kinetics koff" quantitativeresult=0.0171
molecule="AB5 Q1569R P1597H S1602H: domain 11 AB5 + Q1569R, P1597H, S1602H (AB5-RHH) (protein) MKSNEHDDCQVTNPSTGHLFDLSSLSGRAGFTAAYAKGWGVYMSICGENENCPPGVGACFGRTRISVGKANKRLRYVDQVLQLVYKDGSHCPSKHGLSYKSVISFVCRPEAGPTNRPMLISLDKQTCTLFFSWHTPLACEQATECSV" quantity="Kinetics koff" quantitativeresult=0.0038
molecule="AB5 Q1569R P1597K S1602H: domain 11 AB5 + Q1569R, P1597K, S1602H (protein) MKSNEHDDCQVTNPSTGHLFDLSSLSGRAGFTAAYAKGWGVYMSICGENENCPPGVGACFGRTRISVGKANKRLRYVDQVLQLVYKDGSKCPSKHGLSYKSVISFVCRPEAGPTNRPMLISLDKQTCTLFFSWHTPLACEQATECSV" quantity="Kinetics koff" quantitativeresult=0.0073
molecule="AB5 P1597H: domain 11 AB5 + P1597H (protein) MKSNEHDDCQVTNPSTGHLFDLSSLSGRAGFTAAYAKGWGVYMSICGENENCPPGVGACFGQTRISVGKANKRLRYVDQVLQLVYKDGSHCPSKSGLSYKSVISFVCRPEAGPTNRPMLISLDKQTCTLFFSWHTPLACEQATECSV" quantity="Kinetics koff" quantitativeresult=0.0070
molecule="AB5 Q1569R P1597K S1602H G1603K: domain 11 AB5 + Q1569R, P1597K, S1602H, G1603K (protein) MKSNEHDDCQVTNPSTGHLFDLSSLSGRAGFTAAYAKGWGVYMSICGENENCPPGVGACFGRTRISVGKANKRLRYVDQVLQLVYKDGSKCPSKHKLSYKSVISFVCRPEAGPTNRPMLISLDKQTCTLFFSWHTPLACEQATECSV" quantity="Kinetics koff" quantitativeresult=0.008

Reference source: patent US10494415B2
